Below, each entry is listed alongside its reported melting point.

[
  {
    "compound": "COc1ccc(-c2c(N)oc3c(C(C)(C)C)cc(C(C)(C)C)cc23)cc1OC [(303)]",
    "melting point": "172 to 174 °C"
  },
  {
    "compound": "CC(C)(C)c1cc2c(c(C(C)(C)C)c1)OC(=O)C2c1ccccc1 (stereo not shown) [(101)]",
    "melting point": "116 to 119 °C"
  },
  {
    "compound": "Cc1ccc(-c2c(N)oc3c(C(C)(C)C)cc(C(C)(C)C)cc23)cc1C [Compound (302)]",
    "melting point": "128 to 130 °C"
  },
  {
    "compound": "CC(C)(C)c1cc(C(C)(C)C)c2oc(N)c(-c3ccccc3)c2c1 [Compound (301)]",
    "melting point": "174 to 178 °C"
  }
]

From: patent US6586606B2
